Biological target: PDE V (Homo sapiens, UniProt O76074)

| cpdSmiles | IC50 |
| --- | --- |
| COc1ccc(Cn2c(N[C@@H]3CCc4ccccc43)nc3c2c(=O)n(C)c(=O)n3C)cc1 | 5 to 10 nM |
